The measured values listed here are drawn from ChEMBL document CHEMBL1926642.

Overview of recorded CC50 for various molecules
Test system: SK-MEL-28
TEST_SUMMARY: Growth inhibition of human SK-MEL-28 cells after 48 hrs by sulforhodamine B assay
Assay type: functional
ASSAY_CONTEXT: SK-MEL-28, 48 h, read-out: pLC50 (the source's name) (converted)
Respond numerically; units are µM and should not be typed.

SMILES_DATA	CC50, µM
COc1cc(/C=C/c2ccc3c(c2)C[C@@H]2C(C)(C)[C@H](O)CC[C@@]2(C)O3)cc(O)c1C/C=C(\C)CCC=C(C)C	69.2
COc1cc(/C=C/c2cc3c(c(OC)c2)O[C@]2(C)CC[C@@H](O)C(C)(C)[C@H]2C3)cc(O)c1C/C=C(\C)CCC=C(C)C	22.9

In one line, give reported CC50 of the entry COc1cc(/C=C/c2cc(O)c3c(c2)C[C@@H]2C(C)(C)[C@H](O)CC[C@@]2(C)O3)cc(O)c1C/C=C(\C)CCC=C(C)C .
7.94

In one line, give reported CC50 of the entry COc1cc(/C=C/c2cc(F)c3c(c2)C[C@@H]2C(C)(C)[C@H](O)CC[C@@]2(C)O3)cc(O)c1C/C=C(\C)CCC=C(C)C .
56.2

###

Tested on: HT-29
TEST_SUMMARY: Growth inhibition of human HT-29 cells after 48 hrs by sulforhodamine B assay
Format: functional
ASSAY_CONTEXT: HT-29, 48 h
Overview of recorded LC50 (concentration killing 50% of cells) for various compounds
Respond numerically; units are µM and should not be typed.

In one line, give reported LC50 (concentration killing 50% of cells) of the entry COc1cc(/C=C/c2cc(F)c3c(c2)C[C@@H]2C(C)(C)[C@H](O)CC[C@@]2(C)O3)cc(O)c1C/C=C(\C)CCC=C(C)C .
41.7

In one line, give reported LC50 (concentration killing 50% of cells) of the entry COc1cc(/C=C/c2cc3c(c(OC)c2)O[C@]2(C)CC[C@@H](O)C(C)(C)[C@H]2C3)cc(O)c1C/C=C(\C)CCC=C(C)C .
13.2

In one line, give reported LC50 (concentration killing 50% of cells) of the entry COc1cc(/C=C/c2ccc3c(c2)C[C@@H]2C(C)(C)[C@H](O)CC[C@@]2(C)O3)cc(O)c1C/C=C(\C)CCC=C(C)C .
23.4

In one line, give reported LC50 (concentration killing 50% of cells) of the entry COc1cc(/C=C/c2cc(O)c3c(c2)C[C@@H]2C(C)(C)[C@H](O)CC[C@@]2(C)O3)cc(O)c1C/C=C(\C)CCC=C(C)C .
27.5

###

Tested on: BT-549
TEST_SUMMARY: Growth inhibition of human BT549 cells after 48 hrs by sulforhodamine B assay
Type: functional
ASSAY_CONTEXT: BT-549, 48 h
Response field label: string, one of MET (GI50 strictly below 5 µM) or NOT MET.

Below are worked cases with known answers.
SMILES_DATA	LABEL_CLASS
COc1cc(/C=C/c2cc(O)c3c(c2)C[C@@H]2C(C)(C)[C@H](O)CC[C@@]2(C)O3)cc(O)c1C/C=C(\C)CCC=C(C)C	MET
COc1cc(/C=C/c2cc3c(c(SC)c2)O[C@]2(C)CC[C@@H](O)C(C)(C)[C@H]2C3)cc(O)c1C/C=C(\C)CCC=C(C)C	NOT MET
COCOc1cc(/C=C/c2cc(C=O)c3c(c2)C[C@@H]2C(C)(C)[C@H](O)CC[C@@]2(C)O3)cc(OC)c1C/C=C(\C)CCC=C(C)C	MET
COCOc1cc(/C=C/c2cc(CO)c3c(c2)C[C@@H]2C(C)(C)[C@H](O)CC[C@@]2(C)O3)cc(OC)c1C/C=C(\C)CCC=C(C)C	MET
COc1cc(/C=C/c2cc(F)c3c(c2)C[C@@H]2C(C)(C)[C@H](O)CC[C@@]2(C)O3)cc(O)c1C/C=C(\C)CCC=C(C)C	NOT MET

Next compound, please.
Is it true that GI50 reported for COc1cc(/C=C/c2cc3c(c(OC)c2)O[C@]2(C)CC[C@@H](O)C(C)(C)[C@H]2C3)cc(O)c1C/C=C(\C)CCC=C(C)C is less than 5 µM?
MET

###

Test system: SNB-19
TEST_SUMMARY: Growth inhibition of human SNB19 cells after 48 hrs by sulforhodamine B assay
Type: functional
ASSAY_CONTEXT: SNB-19, 48 h
Response field label: string, one of 1.0 (GI50 strictly below 10 µM) or 0.0.

SMILES_DATA	LABEL_CLASS
COCOc1cc(/C=C/c2cc(CO)c3c(c2)C[C@@H]2C(C)(C)[C@H](O)CC[C@@]2(C)O3)cc(OC)c1C/C=C(\C)CCC=C(C)C	0.0

Is it true that GI50 reported for COCOc1cc(/C=C/c2cc(C=O)c3c(c2)C[C@@H]2C(C)(C)[C@H](O)CC[C@@]2(C)O3)cc(OC)c1C/C=C(\C)CCC=C(C)C is less than 10 µM?
0.0

Is it true that GI50 reported for COc1cc(/C=C/c2cc3c(c(SC)c2)O[C@]2(C)CC[C@@H](O)C(C)(C)[C@H]2C3)cc(O)c1C/C=C(\C)CCC=C(C)C is less than 10 µM?
0.0

Is it true that GI50 reported for COc1cc(/C=C/c2ccc3c(c2)C[C@@H]2C(C)(C)[C@H](O)CC[C@@]2(C)O3)cc(O)c1C/C=C(\C)CCC=C(C)C is less than 10 µM?
0.0

Is it true that GI50 reported for COc1cc(/C=C/c2cc3c(c(OC)c2)O[C@]2(C)CC[C@@H](O)C(C)(C)[C@H]2C3)cc(O)c1C/C=C(\C)CCC=C(C)C is less than 10 µM?
1.0

Is it true that GI50 reported for COc1cc(/C=C/c2cc(O)c3c(c2)C[C@@H]2C(C)(C)[C@H](O)CC[C@@]2(C)O3)cc(O)c1C/C=C(\C)CCC=C(C)C is less than 10 µM?
1.0

Is it true that GI50 reported for COc1cc(/C=C/c2cc(F)c3c(c2)C[C@@H]2C(C)(C)[C@H](O)CC[C@@]2(C)O3)cc(O)c1C/C=C(\C)CCC=C(C)C is less than 10 µM?
0.0

###

Tested on: SW-620
TEST_SUMMARY: Growth inhibition of human SW620 cells after 48 hrs by sulforhodamine B assay
Type: functional
ASSAY_CONTEXT: SW-620, 48 h
Overview of recorded GI50 for various compounds
Respond numerically; units are µM and should not be typed.

// below: answered compounds
SMILES_DATA	SYSTEM	GI50 [µM]
COc1cc(/C=C/c2cc3c(c(SC)c2)O[C@]2(C)CC[C@@H](O)C(C)(C)[C@H]2C3)cc(O)c1C/C=C(\C)CCC=C(C)C	SW-620	6.76
COCOc1cc(/C=C/c2cc(C=O)c3c(c2)C[C@@H]2C(C)(C)[C@H](O)CC[C@@]2(C)O3)cc(OC)c1C/C=C(\C)CCC=C(C)C	SW-620	10.2

Here's the next entry for you.
In one line, give reported GI50 of the entry COc1cc(/C=C/c2cc(O)c3c(c2)C[C@@H]2C(C)(C)[C@H](O)CC[C@@]2(C)O3)cc(O)c1C/C=C(\C)CCC=C(C)C .
0.331

###

Test system: NCI-H460
TEST_SUMMARY: Growth inhibition of human NCI-H460 cells after 48 hrs by sulforhodamine B assay
Assay type: functional
ASSAY_CONTEXT: NCI-H460, 48 h
MEASURE_NAME: GI50 (nM)
Respond numerically; units are nM and should not be typed.

SMILES_DATA	SYSTEM	MEASURE_NAME	QUANTITY_UNIT	ASSAY_VALUE
COCOc1cc(/C=C/c2cc(CO)c3c(c2)C[C@@H]2C(C)(C)[C@H](O)CC[C@@]2(C)O3)cc(OC)c1C/C=C(\C)CCC=C(C)C	NCI-H460	GI50	nM	871
COc1cc(/C=C/c2cc3c(c(OC)c2)O[C@]2(C)CC[C@@H](O)C(C)(C)[C@H]2C3)cc(O)c1C/C=C(\C)CCC=C(C)C	NCI-H460	GI50	nM	1320
COc1cc(/C=C/c2cc(F)c3c(c2)C[C@@H]2C(C)(C)[C@H](O)CC[C@@]2(C)O3)cc(O)c1C/C=C(\C)CCC=C(C)C	NCI-H460	GI50	nM	1860

In one line, give reported GI50 of the entry COc1cc(/C=C/c2ccc3c(c2)C[C@@H]2C(C)(C)[C@H](O)CC[C@@]2(C)O3)cc(O)c1C/C=C(\C)CCC=C(C)C .
7410

In one line, give reported GI50 of the entry COCOc1cc(/C=C/c2cc(C=O)c3c(c2)C[C@@H]2C(C)(C)[C@H](O)CC[C@@]2(C)O3)cc(OC)c1C/C=C(\C)CCC=C(C)C .
5890

In one line, give reported GI50 of the entry COc1cc(/C=C/c2cc3c(c(SC)c2)O[C@]2(C)CC[C@@H](O)C(C)(C)[C@H]2C3)cc(O)c1C/C=C(\C)CCC=C(C)C .
3470

In one line, give reported GI50 of the entry COc1cc(/C=C/c2cc(O)c3c(c2)C[C@@H]2C(C)(C)[C@H](O)CC[C@@]2(C)O3)cc(O)c1C/C=C(\C)CCC=C(C)C .
339
